- System: SNB-75 CNS
- protocol-details: NCI-60 one-dose screen, 48 h (100 = growth as untreated, 0 = no growth, -100 = all killed)
- conditions: 10 µM unless noted
The panel holds about 83,000 compounds, 20% with a hit somewhere; the sample as a whole holds those more often.
measurement-name: growth (%)
Number in %, nothing else.

Take a look at these entries with their results.
molecule: COc1cc(C(=O)/C=C/c2c(C)n([O-])c3ccc(Cl)cc3[n+]2=O)cc(OC)c1OC
growth [%]: 60.4
//
molecule: CCC1(CC)NC(=O)c2c(c3ccc(Cl)c(Cl)c3n2C)C1C#N (centres undefined)
growth [%]: 90
//
molecule: O=C(O)/C=C\C(=O)N1C/C(=C\c2ccccc2Cl)C(=O)/C(=C/c2ccccc2Cl)C1
growth [%]: -10.3
//
molecule: C=C(C)[C@@H]1CC[C@]2(C(=O)O)CC[C@]3(C)[C@H](CC[C@@H]4[C@@]5(C)C[C@@H](CC#Cc6ccc(Br)cc6)C(=O)C(C)(C)[C@@H]5CC[C@]43C)[C@@H]12
growth [%]: 70.9
//
molecule: Cc1cc(C(=O)Nc2ncnc3nc[nH]c23)no1
growth [%]: 79.5
//
molecule: CC1=CC[C@@H]2CC[C@]3(C)[C@H](CC[C@@H]4[C@@]5(C)CCCNC(C)(C)[C@@H]5CC[C@]43C)[C@H]2[C@@H]1C
growth [%]: 76.5

The measured growth that `COc1cccc(-c2nc3occn3c2-c2ccnc(NCCCNS(=O)(=O)c3cccc(F)c3)n2)c1` showed for SNB-75 CNS is 117

The measured growth that `CN1CCN(CCCNc2nccc(-c3c(-c4ccc(F)c(O)c4)nc4sccn34)n2)S1(=O)=O` showed for SNB-75 CNS is 122

The measured growth that `CCCCCCCCCCN=C(N)N=C(N)N` showed for SNB-75 CNS is 3.65

* * *

- System: ACHN renal
- protocol-details: NCI-60 one-dose screen, 48 h
- conditions: 10 µM unless noted
Compounds without any hit were thinned out: in the full panel of roughly 83,000, 20% have a hit. Calls of active or inactive are those of the source. The calls were made as follows: active = growth percent below 10; inactive = the rest.
Reply using exactly one outcome from active, inactive

Solved cases below.
compound: COc1cc(-c2nc3occn3c2-c2ccnc(NCCNS(=O)(=O)c3ccc(Cl)cc3)n2)ccc1F
category-label: inactive
--
compound: Clc1nc(Cl)c2ncn(CCOCCn3cnc4c(Cl)nc(Cl)nc43)c2n1
category-label: active
--
compound: COc1ccc2c(c1)c(CC(=O)NCCOCCOCC(=O)Nc1ccc(OC)c(C(N)=O)c1O)c(C)n2C(=O)c1ccc(Cl)cc1
category-label: inactive

Prompt: Just curious, what result did `O=C(N/N=C/c1ccc(O)c(O)c1)c1sc2ccccc2c1Cl` get here?
Completion: inactive

Prompt: Just curious, what result did `NC(=O)c1cccc(-c2cc(C(N)=O)ccc2Cl)c1` get here?
Completion: inactive

Prompt: Just curious, what result did `COc1cccc(/C=C2\COc3ccc(-c4ccccc4)cc3C2=O)c1` get here?
Completion: inactive

Prompt: Just curious, what result did `C=C(C)[C@@H]1CC[C@]2(C(=O)NCCCN(CCC#N)CCC#N)CC[C@]3(C)[C@H](CC[C@@H]4[C@@]5(C)CCC(=O)C(C)(C)[C@@H]5CC[C@]43C)[C@@H]12` get here?
Completion: inactive

Prompt: Just curious, what result did `CC(=O)[C@@H]1CC[C@]2(C(=O)n3ccnc3)CC[C@]3(C)[C@H](CC[C@@H]4[C@@]5(C)Cc6c([nH]c7ccccc67)C(C)(C)[C@@H]5CC[C@]43C)[C@@H]12` get here?
Completion: inactive

Prompt: Just curious, what result did CC(c1ccccc1)n1ccnc1CO (stereo not drawn) get here?
Completion: inactive

Prompt: Just curious, what result did `O=c1[nH]nc(-c2ccc(Cl)cc2)cc1Cc1cccc([N+](=O)[O-])c1` get here?
Completion: inactive
